Molecular target: T1, SloR (UniProt I6L923 1-217)
T1 sequence: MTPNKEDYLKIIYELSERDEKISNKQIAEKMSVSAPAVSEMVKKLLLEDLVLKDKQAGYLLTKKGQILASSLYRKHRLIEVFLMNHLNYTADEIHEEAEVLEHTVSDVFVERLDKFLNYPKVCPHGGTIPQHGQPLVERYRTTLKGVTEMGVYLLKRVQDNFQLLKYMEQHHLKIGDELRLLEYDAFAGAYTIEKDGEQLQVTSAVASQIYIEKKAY
Test: EMSA; BLI: PBS pH 7.2, 0.1% Tween-20, 100 uM MnCl2, 30 C; EMSA: 60-200 nM SloR, 16 uL, 12% native gel, buffer as cited; footprinting: 8.4 mM NaH2PO4, 11.6 mM Na2HPO4, 50 mM NaCl, 5 mM MgCl2, 10 ug/mL BSA, 200 ug/mL salmon sperm DNA, 7.5 uM MnCl2, 30 C
Conditions: protein: recombinant; tags: native (untagged) SloR purified for EMSA and footprinting; chain copies: 2; label: 5' 32P; blunt
reported-property: binding result

See these solved cases before continuing.
mntH.22.SRE1.CC (left IR mutant) (dsDNA) DNA 1: ATTTTTCCGCATACTTAACATA DNA 2: TATGTTAAGTATGCGGAAAAAT	no binding
mntH 100-bp deletion amplicon (dsDNA) DNA 1: AGGTACACCTTTTTTAATTTTTAAGCATACTTAACATATGCTGTTTTTTATGCTATAATGCAATTAACCCAATTATATTAGAAAAGAGATTTTCAAAATG DNA 2: CATTTTGAAAATCTCTTTTCTAATATAATTGGGTTAATTGCATTATAGCATAAAAAACAGCATATGTTAAGTATGCTTAAAAATTAAAAAAGGTGTACCT	binds
mntH.22.SRE1.10IR (SRE1 spacer with -10 SRE IRs) (dsDNA) DNA 1: GCAATTAAGCATACTATATTAG DNA 2: CTAATATAGTATGCTTAATTGC	no binding
mntH.22.SRE1.w10.spcr (spacer variant) (dsDNA) DNA 1: ATTTTTAACCCAATTTAACATA DNA 2: TATGTTAAATTGGGTTAAAAAT	no binding

# ---- query binder ----
Value lookup for binding result; key = mntH 159-bp promoter probe (dsDNA) DNA 1: TCTCTATTGTGTTTTATACTGTCAGTAATTCTTACAAACTCTTTATATTCAGTAATAATAGGTACACCTTTTTTAATTTTTAAGCATACTTAACATATGCTGTTTTTTATGCTATAATGCAATTAACCCAATTATATTAGAAAAGAGATTTTCAAAATG DNA 2: CATTTTGAAAATCTCTTTTCTAATATAATTGGGTTAATTGCATTATAGCATAAAAAACAGCATATGTTAAGTATGCTTAAAAATTAAAAAAGGTGTACCTATTATTACTGAATATAAAGAGTTTGTAAGAATTACTGACAGTATAAAACACAATAGAGA
binds
